The measured values listed here are drawn from PubChem BioAssay AID1159580.

assay-details: chemical genetic growth profiling, strain panel (AID 1159580);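 further: tested at 20 µM; growth read once vehicle control cultures reached saturation at 30 °C; 1 = growth at the plate median or of vehicle wells; lower values mean less growth of the strain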
assay-context: S. cerevisiae deletion strains, growth OD, locus YMR125W, strain sto1, active compounds read low
Among all 5,500 compounds or so, about 2,000 (36%) were called active. Roughly 18% stayed inconclusive and do not appear here. The list shows a part of the results.
observable: normalized growth
Response field accepts a number only; no unit should be typed.

For record `CC(=O)Oc1ccccc1C(=O)O` the listed normalized growth is 0.997

For record `O=C(CCBr)N1CCN(C(=O)CCBr)CC1` the listed normalized growth is 1.03

For record `O=C(O)c1cc(=O)c2cccc(O)c2[nH]1` the listed normalized growth is 1.02

For record CC(=O)OCC1=C(C(=O)O)N2C(=O)[C@@H](NC(=O)CCCC(N)C(=O)O)C2SC1 (stereo not given in full) the listed normalized growth is 0.996

For record `CCNc1nc(Cl)nc(NCC)n1` the listed normalized growth is 0.99

For record C=C(C)[C@@H]1CC[C@]2(CO)CC[C@]3(C)[C@H](CCC4[C@@]5(C)CC[C@H](O)C(C)(C)C5CC[C@]43C)C12 (stereo not given in full) the listed normalized growth is 1.01

For record `COc1ccc2c(=O)ccoc2c1` the listed normalized growth is 1.03

For record CO[C@H]1C[C@H](O[C@H]2[C@H](C)[C@@H](OC3O[C@H](C)C[C@H](N(C)C)[C@H]3OC(C)=O)[C@@H](C)C[C@]3(CO3)C(=O)[C@H](C)[C@@H](OC(C)=O)[C@@H](C)[C@@H](C)OC(=O)[C@@H]2C)O[C@@H](C)[C@@H]1OC(C)=O (stereo not given in full) the listed normalized growth is 0.975

For record CCCCCCCCCCCCCCCCCCOCC(O)CO (stereo not given) the listed normalized growth is 0.955

For record `COc1c2ccoc2cc2oc(C)cc(=O)c12` the listed normalized growth is 0.997
